Biological target: Amine oxidase [flavin-containing] A (Rattus norvegicus, UniProt P21396)
Sequence (P21396 whole entry): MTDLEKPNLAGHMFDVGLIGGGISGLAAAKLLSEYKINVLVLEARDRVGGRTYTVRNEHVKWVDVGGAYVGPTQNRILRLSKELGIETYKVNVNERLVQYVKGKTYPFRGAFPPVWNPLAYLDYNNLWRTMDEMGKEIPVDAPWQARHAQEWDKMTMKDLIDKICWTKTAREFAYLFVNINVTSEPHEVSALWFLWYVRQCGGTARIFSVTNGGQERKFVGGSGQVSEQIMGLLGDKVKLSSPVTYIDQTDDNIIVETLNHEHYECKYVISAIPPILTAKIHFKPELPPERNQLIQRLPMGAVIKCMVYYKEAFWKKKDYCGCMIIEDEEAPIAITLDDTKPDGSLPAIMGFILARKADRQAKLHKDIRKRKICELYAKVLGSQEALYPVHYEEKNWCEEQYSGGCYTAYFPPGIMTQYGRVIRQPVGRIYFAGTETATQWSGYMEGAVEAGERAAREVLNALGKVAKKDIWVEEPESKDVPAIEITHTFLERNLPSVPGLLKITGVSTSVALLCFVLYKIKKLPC
Experiment: In vitro inhibitory concentration against Monoamine oxidase A of rat brain homogenates; value ranges from 0.005-0.010
Type: tissue-based
readout.kind: IC50
Answer with the figure and its unit, nothing else.

Ask: Given "C#CCN(C)[C@@H]1CCc2ccc(O)cc21" , state its recorded IC50.
Reply: 7 nM

====

Biological target: Acetylcholinesterase (Homo sapiens, UniProt P22303)
Sequence (P22303 whole entry): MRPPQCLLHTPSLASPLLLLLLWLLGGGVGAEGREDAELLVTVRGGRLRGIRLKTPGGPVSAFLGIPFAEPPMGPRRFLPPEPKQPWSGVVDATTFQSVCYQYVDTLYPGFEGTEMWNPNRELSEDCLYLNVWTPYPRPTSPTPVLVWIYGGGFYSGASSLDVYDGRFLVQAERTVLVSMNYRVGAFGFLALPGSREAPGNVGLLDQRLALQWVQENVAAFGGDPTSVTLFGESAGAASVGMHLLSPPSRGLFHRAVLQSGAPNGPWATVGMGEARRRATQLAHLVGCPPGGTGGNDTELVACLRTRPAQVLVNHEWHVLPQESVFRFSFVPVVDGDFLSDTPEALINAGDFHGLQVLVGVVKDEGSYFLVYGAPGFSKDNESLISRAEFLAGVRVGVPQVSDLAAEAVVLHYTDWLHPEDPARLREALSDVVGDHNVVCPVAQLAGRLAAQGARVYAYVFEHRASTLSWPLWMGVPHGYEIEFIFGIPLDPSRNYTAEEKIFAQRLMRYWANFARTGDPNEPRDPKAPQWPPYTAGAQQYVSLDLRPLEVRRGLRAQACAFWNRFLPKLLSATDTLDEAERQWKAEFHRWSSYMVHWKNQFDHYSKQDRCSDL
Assay: In vitro inhibitory concentration against purified Acetylcholinesterase of human erythrocytes; value ranges from 5.6-11.9
readout.kind: IC50 (µM)
Express it in µM; write the number only.

Ask: Given "C#CCN(C)[C@H](C)Cc1cccc(OC(=O)N(C)C2CCCCC2)c1" , state its recorded IC50.
Reply: 7.9
